The values you see were collected from patent US10633407B2.

- Tested on: S. pneumoniae ATCC 49619
- assayExplanation: CLSI broth dilution MIC determination
- Assay type: cell-based
- conditions: S. pneumoniae ATCC 49619; Gram-positive
readoutType: MIC

CC[C@H]1OC(=O)[C@H](C)C(=O)[C@H](C)[C@@H](O[C@@H]2OC(C)CC(N(C)C)C2O)[C@](C)(OC)C[C@@H](C)C(=O)[C@H](C)[C@H]2N(C/C=C/Cn3cc(-c4cccc(N)n4)nn3)C(=O)O[C@]12C (some centres unmarked) [FSM-100364]: < 0.0312 µg/mL

// moving on: another record for MIC
Consider the compound CC[C@H]1OC(=O)[C@H](C)C(=O)[C@H](C)[C@@H](O[C@@H]2OC(C)CC(N(C)C)C2O)[C@](C)(OC)C[C@@H](C)C(=O)[C@H](C)[C@H]2N(CC3CC3Cn3cc(-c4cccc(N)c4)nn3)C(=O)O[C@]12C (single isomer, unassigned) [FSM-100434] and give its measured MIC.
< 0.0312 µg/mL

----------
- Test system: K. pneumoniae TEM-10
- assayExplanation: CLSI broth dilution MIC determination
- Type: cell-based
- conditions: Gram-negative
readoutType: MIC (µg/mL)
Express your answer in µg/mL, writing the number without its unit.

CC[C@H]1OC(=O)[C@H](C)C(=O)[C@H](C)[C@@H](O[C@@H]2OC(C)CC(N(C)C)C2O)[C@](C)(OC)C[C@@H](C)C(=O)[C@H](C)[C@H]2N(C/C=C/Cn3cc(-c4cccc(N)n4)nn3)C(=O)O[C@]12C (some centres unmarked): 32
CC[C@H]1OC(=O)[C@H](C)C(=O)[C@H](C)[C@@H](O[C@@H]2OC(C)CC(N(C)C)C2O)[C@](C)(OC)C[C@@H](C)C(=O)[C@H](C)[C@H]2N(CC3CC3Cn3cc(-c4cccc(N)c4)nn3)C(=O)O[C@]12C (single isomer, unassigned) [FSM-100428]: 32

I'm curious: which MIC was measured for CC[C@H]1OC(=O)[C@H](C)C(=O)[C@H](C)[C@@H](O[C@@H]2OC(C)CC(N(C)C)C2O)[C@](C)(OC)C[C@@H](C)C(=O)[C@H](C)[C@H]2N(C/C=C/Cn3cnc(-c4ccccn4)c3)C(=O)O[C@]12C (some centres unmarked) tested on K. pneumoniae TEM-10?
32

I'm curious: which MIC was measured for CC[C@H]1OC(=O)[C@H](C)[C@@H](O[C@H]2C[C@@](C)(OC)[C@@H](O)[C@H](C)O2)[C@H](C)[C@@H](O[C@@H]2O[C@H](C)C[C@H](N(C)C)[C@H]2O)[C@](C)(O)C[C@@H](C)CN(C)[C@H](C)[C@@H](O)[C@]1(C)O [Azithro, azithromycin, reference compound] tested on K. pneumoniae TEM-10?
8

I'm curious: which MIC was measured for CC[C@H]1OC(=O)[C@@](C)(F)C(=O)[C@H](C)[C@@H](O[C@@H]2OC(C)CC(N(C)C)C2O)[C@](C)(OC)C[C@@H](C)C(=O)[C@H](C)[C@H]2N(C/C=C/Cn3cc(-c4cnc(N)s4)nn3)C(=O)O[C@]12C (some centres unmarked) tested on K. pneumoniae TEM-10?
32

I'm curious: which MIC was measured for CC[C@H]1OC(=O)[C@H](C)C(=O)[C@H](C)[C@@H](O[C@@H]2OC(C)CC(N(C)C)C2O)[C@](C)(OC)C[C@@H](C)C(=O)[C@H](C)[C@H]2N(CC#CCn3cc(-c4cccc(N)c4)nn3)C(=O)O[C@]12C (some centres unmarked) tested on K. pneumoniae TEM-10?
32

----------
// MIC lookup, one value per entry
- Test system: S. aureus MRSA: USA300
- assayExplanation: CLSI broth dilution MIC determination
- Type: cell-based
- conditions: Staphylococcus aureus; S. aureus MRSA: USA300 (MP-549, msr(a)); read-out: MIC
Express your answer in µg/mL, writing the number without its unit.

Solved cases below.
CC[C@H]1OC(=O)[C@H](C)C(=O)[C@H](C)[C@@H](O[C@@H]2OC(C)CC(N(C)C)C2O)[C@](C)(OC)C[C@@H](C)C(=O)[C@H](C)[C@H]2N(CC#CCn3cc(-c4cccc(N)n4)nn3)C(=O)O[C@]12C (some centres unmarked): 0.125
CC[C@H]1OC(=O)[C@@](C)(F)C(=O)[C@H](C)[C@@H](O[C@@H]2OC(C)CC(N(C)C)C2O)[C@](C)(OC)C[C@@H](C)C(=O)[C@H](C)[C@H]2N(CC#CCn3cc(-c4cc(=O)cc[nH]4)nn3)C(=O)O[C@]12C (some centres unmarked): 2
CC[C@H]1OC(=O)[C@@](C)(F)C(=O)[C@H](C)[C@@H](O[C@@H]2OC(C)CC(N(C)C)C2O)[C@](C)(OC)C[C@@H](C)C(=O)[C@H](C)[C@H]2N(CC#CCn3cc(-c4cccnn4)nn3)C(=O)O[C@]12C (some centres unmarked): 0.25
CC[C@H]1OC(=O)[C@@](C)(F)C(=O)[C@H](C)[C@@H](O[C@@H]2OC(C)CC(N(C)C)C2O)[C@](C)(OC)C[C@@H](C)C(=O)[C@H](C)[C@H]2N(CC#CCn3cc(-c4ccnc(N)n4)nn3)C(=O)O[C@]12C (some centres unmarked): 0.25
CC[C@H]1OC(=O)[C@@](C)(F)C(=O)[C@H](C)[C@@H](O[C@@H]2OC(C)CC(N(C)C)C2O)[C@](C)(OC)C[C@@H](C)C(=O)[C@H](C)[C@H]2N(CC#CCn3cc(-c4ncccn4)nn3)C(=O)O[C@]12C (some centres unmarked): 0.25

Consider the compound CC[C@H]1OC(=O)[C@@](C)(F)C(=O)[C@H](C)[C@@H](OC2OC(C)CC(N(C)C)C2O)[C@](C)(OC)C[C@@H](C)C(=O)[C@H](C)[C@H]2N(CCCCn3cc(-c4cccc(N)c4)nn3)C(=O)O[C@]12C (some centres unmarked) [Solithro, solithromycin, reference compound] and give its measured MIC.
1

Consider the compound CC[C@H]1OC(=O)[C@H](C)C(=O)[C@H](C)[C@@H](O[C@@H]2OC(C)CC(N(C)C)C2O)[C@](C)(OC)C[C@@H](C)C(=O)[C@H](C)[C@H]2N(NC/C=C/c3ccnc4ccccc34)C(=O)O[C@]12C (some centres unmarked) and give its measured MIC.
2

Consider the compound CC[C@H]1OC(=O)[C@@](C)(F)C(=O)[C@H](C)[C@@H](O[C@@H]2OC(C)CC(N(C)C)C2O)[C@](C)(OC)C[C@@H](C)C(=O)[C@H](C)[C@H]2N(CC#CCn3cc(-c4cncc(N)n4)nn3)C(=O)O[C@]12C (some centres unmarked) and give its measured MIC.
0.5

----------
// MIC lookup, one value per entry
- System: E. coli TEM-1
- assayExplanation: CLSI broth dilution MIC determination
- Assay type: cell-based
- conditions: E. coli TEM-1; Gram-negative

CC[C@H]1OC(=O)[C@@](C)(F)C(=O)[C@H](C)[C@@H](OC2OC(C)CC(N(C)C)C2O)[C@](C)(OC)C[C@@H](C)C(=O)[C@H](C)[C@H]2N(CCCCn3cc(-c4cccc(N)c4)nn3)C(=O)O[C@]12C (some centres unmarked) [Solithro, solithromycin, reference compound]: 32 µg/mL
CC[C@H]1OC(=O)[C@@](C)(F)C(=O)[C@H](C)[C@@H](O[C@@H]2OC(C)CC(N(C)C)C2O)[C@](C)(OC)C[C@@H](C)C(=O)[C@H](C)[C@H]2N(C/C=C/Cn3nnc(-c4ccccn4)n3)C(=O)O[C@]12C (some centres unmarked): 32 µg/mL
CC[C@H]1OC(=O)[C@H](C)C(=O)[C@H](C)[C@@H](O[C@@H]2OC(C)CC(N(C)C)C2O)[C@](C)(OC)C[C@@H](C)C(=O)[C@H](C)[C@H]2N(C/C=C/Cn3cnc(-c4ccccn4)c3)C(=O)O[C@]12C (some centres unmarked): 32 µg/mL
CC[C@H]1OC(=O)[C@H](C)C(=O)[C@H](C)[C@@H](O[C@@H]2OC(C)CC(N(C)C)C2O)[C@](C)(OC)C[C@@H](C)C(=O)[C@H](C)[C@H]2N(C/C=C/Cn3cc(-c4cccc(N)n4)nn3)C(=O)O[C@]12C (some centres unmarked): > 32 µg/mL
CC[C@H]1OC(=O)[C@H](C)C(=O)[C@H](C)[C@@H](O[C@@H]2OC(C)CC(N(C)C)C2O)[C@](C)(OC)C[C@@H](C)C(=O)[C@H](C)[C@H]2N(CC3CC3Cn3cc(-c4cccc(N)c4)nn3)C(=O)O[C@]12C (single isomer, unassigned) [FSM-100428]: 32 µg/mL
CC[C@H]1OC(=O)[C@H](C)C(=O)[C@H](C)[C@@H](O[C@@H]2OC(C)CC(N(C)C)C2O)[C@](C)(OC)C[C@@H](C)C(=O)[C@H](C)[C@H]2N(C/C=C/Cn3nnnc3-c3ccccn3)C(=O)O[C@]12C (some centres unmarked): 16 µg/mL
CC[C@H]1OC(=O)[C@@](C)(F)C(=O)[C@H](C)[C@@H](O[C@@H]2OC(C)CC(N(C)C)C2O)[C@](C)(OC)C[C@@H](C)C(=O)[C@H](C)[C@H]2N(C/C=C/Cn3cc(-c4cccc(N)c4)nn3)C(=O)O[C@]12C (some centres unmarked): 16 µg/mL

Consider the compound CC[C@H]1OC(=O)[C@H](C)C(=O)[C@H](C)[C@@H](O[C@@H]2OC(C)CC(N(C)C)C2O)[C@](C)(OC)C[C@@H](C)C(=O)[C@H](C)[C@H]2N(C/C=C/Cn3cc(-c4nccs4)nn3)C(=O)O[C@]12C (some centres unmarked) and give its measured MIC.
32 µg/mL
